Below: a set of entries, each annotated with reported MIC.
Test system: Candida albicans
method: Antimicrobial activity against Candida albicans UBC54 by twofold serial microbroth dilution method
Assay type: functional

| compound | MIC |
| --- | --- |
| C=C[C@H](O)C#CC#CC/C=C\CCCCCCC | 6.25 µg/mL |
| CCCCCCC/C=C\[C@H](O)C#CC#C[C@@H](O)CC | 12.5 µg/mL |
| C=C[C@@H](O)C#CC#C[C@@H](O)/C=C\CCCCCCC | 25 µg/mL |
| C=C[C@H](O)C#CC#C[C@@H](O)/C=C\CCCCCCCCOC(C)=O | > 50 µg/mL |
| COc1cccc(OC)c1C(=O)N[C@@H]1C(=O)N2[C@@H]1SC(C)(C)[C@@H]2C(=O)O | > 100 µg/mL |
| CC[C@H](O)C#CC#C[C@@H](O)/C=C\CCCCCCCCOC(C)=O [OPLOPANDIOL ACETATE] | > 50 µg/mL |

----------
System: Staphylococcus aureus
method: Antimicrobial activity against methicillin-resistant Staphylococcus aureus SAP00017 by twofold serial microbroth dilution method
Assay type: functional
Below: a set of entries, each annotated with reported MIC.

| compound | testSystem | MIC |
| --- | --- | --- |
| CCCCCCC/C=C\[C@H](O)C#CC#C[C@@H](O)CC [OPLOPANDIOL] | Staphylococcus aureus | 6.25 µg/mL |
| C=C[C@H](O)C#CC#CC/C=C\CCCCCCC [FALCARINOL] | Staphylococcus aureus | 3.1 µg/mL |
| C=C[C@H](O)C#CC#C[C@@H](O)/C=C\CCCCCCCCOC(C)=O | Staphylococcus aureus | > 50 µg/mL |
| C=C[C@@H](O)C#CC#C[C@@H](O)/C=C\CCCCCCC [FALCARINDIOL] | Staphylococcus aureus | 25 µg/mL |
| CC[C@H](O)C#CC#C[C@@H](O)/C=C\CCCCCCCCOC(C)=O [OPLOPANDIOL ACETATE] | Staphylococcus aureus | > 50 µg/mL |

----------
Below: a set of entries, each annotated with reported MIC.
System: Staphylococcus aureus
method: Antimicrobial activity against methicillin-susceptible Staphylococcus aureus RN4220 by twofold serial microbroth dilution method
Type: functional

| compound | resultUnits | MIC |
| --- | --- | --- |
| C=C[C@H](O)C#CC#C[C@@H](O)/C=C\CCCCCCCCOC(C)=O | µg/mL | 50 |
| C=C[C@@H](O)C#CC#C[C@@H](O)/C=C\CCCCCCC | µg/mL | 25 |
| CC[C@H](O)C#CC#C[C@@H](O)/C=C\CCCCCCCCOC(C)=O [OPLOPANDIOL ACETATE] | µg/mL | 50 |
| COc1cccc(OC)c1C(=O)N[C@@H]1C(=O)N2[C@@H]1SC(C)(C)[C@@H]2C(=O)O | µg/mL | 1.6 |
| CCCCCCC/C=C\[C@H](O)C#CC#C[C@@H](O)CC | µg/mL | 6.25 |
| C=C[C@H](O)C#CC#CC/C=C\CCCCCCC | µg/mL | 3.1 |

----------
System: Mycobacterium avium
method: Antimycobacterial activity against isoniazid-resistant Mycobacterium avium at 100 ug/disk by disk diffusion assay
Assay type: functional, organism-based
Calls of active or inactive are those of the source. The calls are words filed in the database; no cut-off is given here.
Possible outcomes: 1 = active, -1 = inactive

| compound | categoryLabel |
| --- | --- |
| C=C[C@@H](O)C#CC#C[C@@H](O)/C=C\CCCCCCC [FALCARINDIOL] | 1 |
| NNC(=O)c1ccncc1 | -1 |
| CC[C@H](O)C#CC#C[C@@H](O)/C=C\CCCCCCCCOC(C)=O [OPLOPANDIOL ACETATE] | 1 |
| CCCCCCC/C=C\[C@H](O)C#CC#C[C@@H](O)CC [OPLOPANDIOL] | 1 |
| C=C[C@H](O)C#CC#CC/C=C\CCCCCCC [FALCARINOL] | 1 |
| C=C[C@H](O)C#CC#C[C@@H](O)/C=C\CCCCCCCCOC(C)=O | 1 |
